tested on: S. cerevisiae; test: Growth of S. cerevisiae strains in overlay/underlay candidates (OD600); assay type: cell-based, Saccharomyces cerevisiae; details: 20% (v/v) overlay/underlay; YP+2% (w/v) galactose or glucose; 96 well deepwell plates; production and non-production strains
recordedEndpoint: toxicity to growth (OD600 as proxy for biomass growth)

INSERT INTO measurements (compound, valuereported) VALUES
  ('CCCCCCCCCCCCCC(=O)OC(C)C [IPM, isopropyl myristate]', 'non-toxic'),
  ('CCCCCCCCCCCC(=O)OCCCC [butyl laurate]', 'non-toxic');

###

Test system: S. cerevisiae
Assay: Growth of S. cerevisiae strains in overlay/underlay candidates (OD600)
Format: cell-based, Saccharomyces cerevisiae
Details: 20% (v/v) overlay/underlay; YP+2% (w/v) galactose or glucose; 96 well deepwell plates; production and non-production strains
Procedure: To test non-toxic organic overlays/underlays, different non-production background and production strains of S. cerevisiae (Table 1) were inoculated from colonies on YPD agar plates and grown for approximately 24 hours in 96 well deepwell plates containing 300 μL YP+2% (w/v) glucose at 30° C. with 950 rpm shaking (3 mm throw) and maintained at 85% humidity. […]
recordedEndpoint: toxicity to growth (OD600 as proxy for biomass growth)

INSERT INTO results (compound, valuereported) VALUES
  ('CCCCCCCCCCCCCC(=O)OC [methyl myristate]', 'non-toxic'),
  ('CCCCCCCCCCCCCC', 'Lack of toxicity'),
  ('CCCCCCCCCCCC', 'Lack of toxicity'),
  ('CCCCCCCCOC(C)=O [octyl acetate]', 'toxic'),
  ('CCCCCCCCCCCC(=O)OCC [ethyl laurate]', 'non-toxic'),
  ('CCCCCCCCCCCCCC(=O)OCC [ethyl myristate]', 'non-toxic');
